- TARGET OR TEST SYSTEM: T1, human MSLN-FL-his protein (human, UniProt Q13421 296-580)
- T1 construct: Made in HEK293E cells, purified on nickel column; also called hMSLN-FL-his; human MSLN full-length protein; not shown: His tag
- T1 sequence (Q13421 other isoform, or with tags, fused parts or gaps): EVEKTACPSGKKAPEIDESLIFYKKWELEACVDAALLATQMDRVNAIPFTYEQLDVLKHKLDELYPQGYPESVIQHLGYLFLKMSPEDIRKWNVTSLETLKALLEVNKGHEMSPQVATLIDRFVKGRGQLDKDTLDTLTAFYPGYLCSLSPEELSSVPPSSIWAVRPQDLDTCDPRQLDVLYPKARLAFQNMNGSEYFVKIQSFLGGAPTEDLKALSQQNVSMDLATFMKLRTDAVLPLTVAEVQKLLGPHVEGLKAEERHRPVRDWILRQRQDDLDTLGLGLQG
- ASSAY INFO: ELISA, coated antigen, no antibody (blank)
MEASURED QUANTITY: OD450

BINDER | ENDPOINT RESULT
S009-F7.67.12 chimeric antibody (antibody, human IgG1, kappa, V domains shown, Human-murine chimeric antibody, human IgG1/kappa constant regions) VH: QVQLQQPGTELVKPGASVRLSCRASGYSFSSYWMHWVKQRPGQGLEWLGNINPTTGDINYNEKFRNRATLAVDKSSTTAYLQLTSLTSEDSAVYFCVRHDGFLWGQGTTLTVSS VL: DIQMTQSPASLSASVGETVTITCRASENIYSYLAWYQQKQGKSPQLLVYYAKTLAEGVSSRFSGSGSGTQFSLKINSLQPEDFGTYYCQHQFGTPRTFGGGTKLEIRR | 0.05
S009-F7.21.16 chimeric antibody (antibody, human IgG1, kappa, V domains shown, Human-murine chimeric antibody, human IgG1/kappa constant regions) VH: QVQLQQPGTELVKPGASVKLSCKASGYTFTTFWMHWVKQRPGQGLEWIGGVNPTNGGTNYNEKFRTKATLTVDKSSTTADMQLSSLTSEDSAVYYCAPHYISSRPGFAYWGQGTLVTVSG VL: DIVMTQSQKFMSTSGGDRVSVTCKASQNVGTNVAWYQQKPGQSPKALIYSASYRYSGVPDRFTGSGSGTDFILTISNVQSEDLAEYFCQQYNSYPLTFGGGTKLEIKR | 0.08
S009-F7.65.13 chimeric antibody (antibody, human IgG1, kappa, V domains shown, Human-murine chimeric antibody, human IgG1/kappa constant regions) VH: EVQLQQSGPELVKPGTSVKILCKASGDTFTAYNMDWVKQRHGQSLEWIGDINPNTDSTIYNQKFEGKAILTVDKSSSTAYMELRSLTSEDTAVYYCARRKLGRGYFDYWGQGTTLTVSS VL: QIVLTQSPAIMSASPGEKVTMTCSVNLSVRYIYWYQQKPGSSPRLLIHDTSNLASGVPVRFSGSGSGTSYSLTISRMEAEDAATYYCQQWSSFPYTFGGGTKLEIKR | 0.06
